Data provenance is PubChem BioAssay.

What z-score was measured for each of the following?
# measurement description: S. pombe growth modifiers, basal conditions – strain 972, OD600, 24 h, no modulator, primary screen (AID 1090);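 note: basal condition with compound alone and no growth modifier present; test concentration not given here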
# condition set: S. pombe 972 growth, higher = more signal, called active from +8 up or from −8 down
# print the numeric value only

Sample COc1cccc(C[C@H]2C[C@@H](CO[Si](C(C)C)(C(C)C)C(C)C)N3C(=O)[C@]4(C(C)=O)O[C@]23[C@H]2C(=O)N(C)C(=O)[C@H]24)c1 — what was its z-score?
1.38

Endpoint output: z-score of COc1cc(C(O)C2C=CC3C(=O)N(C)C(=O)C3N2NC(=O)OC(C)(C)C)cc(OC)c1OC (centres undefined) . Value?
2

GET /values?readout=z-score&item= O=C1NC(=O)C2C1C=CC(C(O)c1ccc(-c3ccccc3)s1)N2Nc1ccccn1 (centres undefined)
1.01

Quick one: z-score for C[C@H]1NC(=O)C([C@@H](C)OCc2ccccc2)NC(=O)[C@@]23C(=O)N[C@@H](Cc4ccccc4)C2[C@H](C)[C@@]2(C)O[C@H]2C3/C=C/CC/C=C/CNC1=O (some centres undefined) ?
-0.657

###

Give z-score for every item shown.
# measurement description: plasmodial surface anion channel blockers, osmotic lysis – cell-based, P. falciparum Indochina, OD700, 1 h, primary screen (AID 1154)
# condition set: P. falciparum Indochina infected RBC osmotic lysis, higher = more signal, called active from +8 up or from −8 down
API note: the answer field is a bare number with no unit suffix.

What does the data say about its z-score? Entry: COC(=O)[C@@]1(Cc2ccc(F)cc2)[C@H]2c3cc(C(=O)N(C)C)n(CCSCCO)c3C[C@H]2CN1C(=O)c1ccccc1
0.621

Recorded z-score for CCC[C@@H]1C[C@@]1(CCC)[C@@H](NC(=O)c1cccs1)c1ccc(Cl)cc1 , please?
-0.119

Suppose we examine the compound NCCCCCCNC(=O)[C@H]1C[C@H]2C(=O)N3CCC[C@H]3C(=O)N2[C@H]1c1ccc(O)cc1 ; what z-score value has been reported?
1.55

Fill blank: measured z-score of the compound CC(C)(C)OC(=O)CC[C@@]1(C(=O)N2CCCCC2)N=C(c2ccc(OCCCO)cc2)O[C@@H]1c1ccccc1CN=[N+]=[N-] is ____.
29.6

Name the recorded z-score for COc1ccc([Si](C)(C)[C@@H]2[C@@H](CC(=O)N(CCO)Cc3ccccc3)O[C@]3(C(=O)N(Cc4ccc(N5CCOC5=O)cc4)c4ccccc43)[C@H]2C)cc1 .
8.87

If you can, please state the reported z-score value of CC(C)(C)OC(=O)CC[C@]1(C(=O)N2CCCCC2)N=C(c2ccc(OCCCO)cc2)O[C@H]1c1ccccc1CN=[N+]=[N-] .
21.9

Need z-score, item C=C(COC)/C(=C/C[C@@H](OC(=O)c1ccncc1)c1cccc(OCCO)c1)c1cc(C(=O)OC)ccc1OC
8.82

Name the reported z-score value associated with the compound COc1ccc([Si](C)(C)[C@@H]2[C@@H](CCO)O[C@]3(C(=O)N(Cc4ccccc4)c4ccc(N5CCCCC5=O)cc43)[C@H]2C)cc1
3.59

Recorded z-score of CCCNC(=O)[C@@H]1c2ccccc2C(=O)N(CC23CC4CC(CC(C4)C2)C3)[C@H]1c1ccc(CO)cc1 , please.
2.45

What value of measured z-score is listed for CN1C(=O)C2C=CC(C(O)C3CCCCC3)N(N(c3ccccc3)c3ccccc3)C2C1=O (centres undefined) ?
0.801

Need z-score of COCCOC(=O)N1C(=O)[C@@]2(c3cc(C#CC4(O)CCCCCC4)ccc31)[C@H](C(=O)N1CCc3cc(OC)c(OC)cc3C1)[C@H]1C(=O)O[C@H](c3ccccc3)[C@H](c3ccccc3)N1[C@@H]2c1ccccc1OCCO , thanks.
1.39

Look up z-score: CC(C)[Si](C#C[Si](C(C)C)(C(C)C)C(C)C)(O[C@H](C)c1cn(Cc2cccc(Cl)c2)nn1)C(C)C
1.23

I have this compound here, O=C1O[C@@H](c2ccccc2)[C@@H](c2ccccc2)N2[C@@H](c3ccc(O)cc3)[C@]3(C(=O)Nc4ccc(C#CC5=CCCCC5)cc43)[C@@H](C(=O)Nc3nc4ccccc4s3)[C@H]12 , and I need its recorded z-score.
0.0488

Please give the measured z-score for this compound: OCCCC1=CC(c2cccs2)N(Cc2cccc(OC(F)(F)F)c2)CC1 (centres undefined)
7.72

Which z-score value belongs to C=CCN1C(=O)[C@@]2(O[C@@H](CCO)[C@H]([Si](C)(C)c3ccc(OC)cc3)[C@H]2C)c2cc(NC(=O)[C@H](C)O)ccc21 ?
23

Entry COC(=O)[C@@]1(Cc2ccccc2)[C@H]2c3cc(C(=O)N(C)C)n(Cc4ccc(O)c(OC)c4)c3C[C@H]2CN1C(=O)c1ccccc1 : reported z-score = ?
2.41

What does the record list as z-score for CC(C)CCC[C@@H](C)[C@H]1CC[C@@]2(C)C3=C(CC[C@]12C)[C@@]1(C)CC[C@H](OC(=O)C(C)(C)C)C(C)(C)C1CC3 (some centres undefined) ?
-0.0452

// query z-score value for entry CCCN1C(=O)[C@@H]2Cc3c([nH]c4ccccc34)[C@@H](c3cccc(O)c3)N2C1=O
-0.578

Entry CN(C)C(=O)[C@@]1(CCS(=O)(=O)c2ccccc2)N=C(c2ccc(OCCCO)cc2)O[C@H]1c1ccccc1CN=[N+]=[N-] : reported z-score = ?
24
